Item-by-item account of (IC50) ^2 / rAaChE1 (ATCh Substrate)
tested_target: rAaChE1 (recombinant AaChE1, A. americanum cholinesterase 1)
Construct: pBlueBac4.5/V5-His in Sf21 cells (reverse primer appears to carry the native stop codon); unpurified culture supernatant
measurement_protocol: cholinesterase inhibition assay, absorbance at […] nm
Assay type: biochemical, Amblyomma americanum
Parameters: unit not given here
protocol_conditions: 15 min preincubation, culture supernatant, covalent

{"compound": "CC(C)NP(=O)(NC(C)C)OP(=O)(NC(C)C)NC(C)C [Iso-OMPA]", "(IC50) ^2 / rAaChE1 (ATCh Substrate)": "3.48 × 10^−05 (2.76–4.43 × 10^−5)"}
{"compound": "CCOC(=O)CC(SP(=O)(OC)OC)C(=O)OCC (stereo not shown) [Malaoxon]", "(IC50) ^2 / rAaChE1 (ATCh Substrate)": "2.77 × 10^−8 (2.45–3.14 × 10^−8)"}
{"compound": "CCOP(=O)(OCC)Oc1ccc2c(C)c(Cl)c(=O)oc2c1 [Coroxon]", "(IC50) ^2 / rAaChE1 (ATCh Substrate)": "2.35 × 10^−11 (1.93–2.84 × 10^−11)"}
{"compound": "CNC(=O)Oc1ccc2c(c1)[C@]1(C)CCN(C)[C@@H]1N2C [Eserine]", "(IC50) ^2 / rAaChE1 (ATCh Substrate)": "2.28 × 10^−10 (2.37–3.26 × 10^−10)"}
